# Tested on: HL60
# EXPERIMENT SUMMARY: CellTiter-Glo cell viability assay (example 57)
# Type: cell-based
# MEASUREMENT CONTEXT: Homo sapiens, HL-60; HL60 (Leukemia); Cell Titer-Glo; 72 h
REPORTED PROPERTY: EC50 (µM)
Field format: number, assumed µM, no unit text.

Here is how some compounds turned out for EC50.
COMPOUND	READOUT VALUE
CCN(CCO)CCCC(C)Nc1ccnc2cc(Cl)ccc12 (stereo not drawn) [HCQ, hydroxychloroquine]	40
CCN(CC)C1CCN(C(C)c2cc(-c3ccccc3)nc3ccccc23)CC1.Cl.Cl (stereo not drawn) [XIX-3, dihydrochloride]	40

Consider the record given below.
Item `Nc1ccn([C@@H]2O[C@H](CO)[C@@H](O)[C@@H]2O)c(=O)n1` has what recorded EC50?
2

====

# Tested on: patient derived acute myeloid leukemia (AML) cell lines
# EXPERIMENT SUMMARY: Cell growth inhibition assay, patient derived AML cells
# Type: cell-based, human
# MEASUREMENT CONTEXT: Homo sapiens, 48 h, Patient 12, subtype 5 & 7
The entries below come with measured EC50 values attached.
Field format: number, assumed µM, no unit text.

COMPOUND	TGT	EC50 / µM
CCN(CC)C1CCN(C(C)c2cc(-c3ccc4ccccc4c3)nc3ccccc23)CC1.Cl.Cl (centres unmarked) [XXIV-3, dihydrochloride]	patient derived acute myeloid leukemia (AML) cell lines	11

Write down the reported EC50 of CCN(CC)C1CCN(C(C)c2cc(-c3ccccc3)nc3ccccc23)CC1.Cl.Cl (centres unmarked) [XIX-3, dihydrochloride] , test system: patient derived acute myeloid leukemia (AML) cell lines.
16

Try this compound too: Cc1ccc(-c2cc(N3CCC(NC(C)(C)C)CC3)c3ccccc3n2)cc1.Cl.Cl [XIII-8, dihydrochloride]
21
